Assign CC50 at 3 days to each entry below.
- Protocol Summary: MTT cell viability in parallel with the U1 assay
- Format: cell-based
- Experimental Parameters: human, U1 cells; Table 5; read-out: U1 TC50
- Procedure: U1 activation assay. U1 cells obtained from the AIDS Research and Reference Reagent Program were maintained under standard culture conditions in RPMI 1640 supplemented with 10% fetal bovine serum (heat inactivated), 2 mM L-glutamine, 100U/mL penicillin and 100 μg/mL streptomycin. […] Cell-free virus production was measured by p24 ELISA on culture supernatant. Compound toxicity was determined by MTT cell-viability assay in parallel assays.

Problem: Requested field: CC50 at 3 days. Item: `CN(C)c1cncc2sc(C(N)=O)c(N)c12`
Solution: > 40 µM

Problem: Requested field: CC50 at 3 days. Item: `NC(=O)c1sc2cncc(-c3ccc4cc[nH]c4c3)c2c1N`
Solution: > 40 µM

Problem: Requested field: CC50 at 3 days. Item: `COc1ncc(-c2cncc3sc(C(N)=O)cc23)c(OC)n1`
Solution: > 40 µM

Problem: Requested field: CC50 at 3 days. Item: `COc1ccccc1-c1cncc2sc(C(N)=O)c(N)c12`
Solution: > 40 µM

Problem: Requested field: CC50 at 3 days. Item: `NC(=O)c1cc2c(-c3ccc4c(c3)OCCO4)cncc2s1`
Solution: < 40 µM

Problem: Requested field: CC50 at 3 days. Item: COc1ccc(-c2cncc3sc(C(N)=O)c(N)c23)cc1 [drawing 136]
Solution: > 40 µM

Problem: Requested field: CC50 at 3 days. Item: NC(=O)c1sc2cncc(N3CCCCC3)c2c1N [drawing 134]
Solution: < 40 µM

Problem: Requested field: CC50 at 3 days. Item: NC(=O)c1sc2cncc(-c3ccc4c(c3)CCO4)c2c1N [drawing 151]
Solution: > 40 µM

Problem: Requested field: CC50 at 3 days. Item: `NC(=O)c1cc2c(N3CCCCC3)cncc2s1`
Solution: < 40 µM

Problem: Requested field: CC50 at 3 days. Item: `NC(=O)c1sc2cncc(-c3ccc4c(c3)OCCO4)c2c1N`
Solution: > 40 µM

====

Assign CC50 at 48 h to each entry below.
- Protocol Summary: MTT cell viability run in parallel with the Tat-hybrid assay
- Assay type: cell-based
- Experimental Parameters: human, Tat-hybrid reporter cell lines (HeLa); Table 5; read-out: Tat hybrid TC50

Problem: Requested field: CC50 at 48 h. Item: `CN(Cc1cccs1)c1cncc2sc(C(N)=O)c(N)c12`
Solution: < 40 µM

Problem: Requested field: CC50 at 48 h. Item: `Cn1cc(CC(=O)N2CCN(c3cncc4sc(C(N)=O)c(N)c34)CC2)c2ccccc21`
Solution: < 40 µM

Problem: Requested field: CC50 at 48 h. Item: CN(C)c1ccnc2sc(C(N)=O)c(N)c12 [drawing 152]
Solution: > 40 µM
